Values were extracted from ChEMBL document CHEMBL1149992.

biological target: Butyrylcholinesterase (Rattus norvegicus)
Sequence (Q9JKC1 whole entry): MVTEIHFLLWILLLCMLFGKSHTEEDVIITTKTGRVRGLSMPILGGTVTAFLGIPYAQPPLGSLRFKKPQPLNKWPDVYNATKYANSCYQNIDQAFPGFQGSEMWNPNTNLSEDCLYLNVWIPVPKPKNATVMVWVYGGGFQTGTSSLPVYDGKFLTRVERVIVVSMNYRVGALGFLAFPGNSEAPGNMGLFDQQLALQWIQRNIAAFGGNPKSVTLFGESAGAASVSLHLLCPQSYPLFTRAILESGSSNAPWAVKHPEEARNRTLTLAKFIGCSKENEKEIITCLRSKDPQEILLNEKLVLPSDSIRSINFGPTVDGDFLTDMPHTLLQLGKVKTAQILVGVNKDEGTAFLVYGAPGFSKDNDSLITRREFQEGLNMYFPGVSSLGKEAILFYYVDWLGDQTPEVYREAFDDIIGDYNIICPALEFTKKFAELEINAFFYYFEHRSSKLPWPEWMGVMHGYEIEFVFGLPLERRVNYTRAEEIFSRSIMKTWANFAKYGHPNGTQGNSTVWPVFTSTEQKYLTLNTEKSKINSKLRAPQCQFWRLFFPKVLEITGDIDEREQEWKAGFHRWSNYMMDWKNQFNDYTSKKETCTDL
IC50 strictly less than 7 µM = yes (1). Otherwise no (0).

// below: answered compounds
{"recordSmiles": "Nc1c2c(nc3ccccc13)-c1ccccc1C2", "classification": "yes (1)"}
{"recordSmiles": "Nc1c2c(nc3ccccc13)-c1ccccc1CC2", "classification": "yes (1)"}
{"recordSmiles": "Nc1c2c(nc3ccccc13)-c1ccccc1CS2", "classification": "yes (1)"}
{"recordSmiles": "Nc1cc(-c2ccccc2)nc2ccccc12", "classification": "no (0)"}

Lab note: IC50 threshold 7 µM. Does this compound come in strictly under it? Nc1c2c(nc3ccccc13)-c1ccccc1CO2
yes (1)

---

The following molecules are shown together with reported Relative Selectivity values.
molecular target: Acetylcholinesterase (Homo sapiens); experiment: In vitro selectivity towards Acetylcholinesterase relative to compound 1
Sequence (P22303 whole entry): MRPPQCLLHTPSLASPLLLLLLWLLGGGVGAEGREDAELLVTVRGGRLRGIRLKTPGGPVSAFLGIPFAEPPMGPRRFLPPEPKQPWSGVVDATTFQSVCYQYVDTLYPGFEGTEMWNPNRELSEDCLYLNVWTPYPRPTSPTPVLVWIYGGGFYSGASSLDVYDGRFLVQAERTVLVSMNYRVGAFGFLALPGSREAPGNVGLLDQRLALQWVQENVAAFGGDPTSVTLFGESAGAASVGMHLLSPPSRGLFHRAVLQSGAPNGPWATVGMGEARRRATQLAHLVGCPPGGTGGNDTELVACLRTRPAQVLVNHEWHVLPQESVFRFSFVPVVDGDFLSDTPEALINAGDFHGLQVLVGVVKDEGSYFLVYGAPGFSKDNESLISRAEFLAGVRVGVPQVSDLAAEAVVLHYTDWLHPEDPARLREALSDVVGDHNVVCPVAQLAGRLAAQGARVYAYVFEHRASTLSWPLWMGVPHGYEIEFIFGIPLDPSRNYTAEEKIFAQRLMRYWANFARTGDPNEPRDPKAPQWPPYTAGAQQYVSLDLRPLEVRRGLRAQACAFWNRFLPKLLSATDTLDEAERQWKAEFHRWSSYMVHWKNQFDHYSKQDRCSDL
Give the figure only, with no unit attached.

{"recordSmiles": "Nc1c2c(nc3ccccc13)-c1ccccc1CS2", "targetOfAssay": "Acetylcholinesterase (Homo sapiens)", "Relative Selectivity": 1.22}

Sample Nc1c2c(nc3ccccc13)-c1ccccc1CC2 — what was its Relative Selectivity?
1.83

One more molecule: Nc1c2c(nc3ccccc13)-c1ccccc1C2
32.1

Could you do the same for Nc1c2c(nc3ccccc13)-c1ccccc1CO2 , please?
0.13

Check Nc1cc(-c2ccccc2)nc2ccccc12 too.
4.86

---

target: Acetylcholinesterase (Rattus norvegicus, UniProt P37136)
Sequence (P37136 whole entry): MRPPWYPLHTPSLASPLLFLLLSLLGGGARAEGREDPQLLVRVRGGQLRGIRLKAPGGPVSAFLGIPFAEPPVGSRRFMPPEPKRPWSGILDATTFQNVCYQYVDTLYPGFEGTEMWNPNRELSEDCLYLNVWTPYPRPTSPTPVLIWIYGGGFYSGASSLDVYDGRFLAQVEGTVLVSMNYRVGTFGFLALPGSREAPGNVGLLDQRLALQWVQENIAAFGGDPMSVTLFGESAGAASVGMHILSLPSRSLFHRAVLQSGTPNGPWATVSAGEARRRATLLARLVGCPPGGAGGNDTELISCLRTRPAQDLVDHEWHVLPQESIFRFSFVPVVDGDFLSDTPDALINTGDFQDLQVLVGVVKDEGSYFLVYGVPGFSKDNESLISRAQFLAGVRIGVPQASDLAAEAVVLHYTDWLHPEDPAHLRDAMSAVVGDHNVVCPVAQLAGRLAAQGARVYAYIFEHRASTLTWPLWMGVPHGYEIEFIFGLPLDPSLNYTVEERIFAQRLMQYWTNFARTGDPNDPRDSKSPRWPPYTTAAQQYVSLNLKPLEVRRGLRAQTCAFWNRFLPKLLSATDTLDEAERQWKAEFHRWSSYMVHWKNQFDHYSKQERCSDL
IC50 for assorted compounds

{"recordSmiles": "Nc1c2c(nc3ccccc13)-c1ccccc1C2", "IC50": "0.48 µM"}
{"recordSmiles": "Nc1c2c(nc3ccccc13)-c1ccccc1CC2", "IC50": "4 µM"}
{"recordSmiles": "Nc1cc(-c2ccccc2)nc2ccccc12", "IC50": "> 100 µM"}
{"recordSmiles": "Nc1c2c(nc3ccccc13)-c1ccccc1CS2", "IC50": "> 100 µM"}

Consider now this further compound.
For the compound Nc1c2c(nc3ccccc13)-c1ccccc1CO2 , what IC50 is on record?
> 100 µM

---

target: UniProt P22303
hey, just use t if measured IC50 is less than 20 µM, otherwise f

The following compounds have reported results that may help.
{"recordSmiles": "Nc1c2c(nc3ccccc13)-c1ccccc1CO2", "targetOfAssay": "UniProt P22303", "classification": "f"}
{"recordSmiles": "Nc1c2c(nc3ccccc13)-c1ccccc1CC2", "targetOfAssay": "UniProt P22303", "classification": "t"}
{"recordSmiles": "Nc1cc(-c2ccccc2)nc2ccccc12", "targetOfAssay": "UniProt P22303", "classification": "t"}
{"recordSmiles": "Nc1c2c(nc3ccccc13)-c1ccccc1CS2", "targetOfAssay": "UniProt P22303", "classification": "t"}

IC50 strictly < 20 µM for this compound? Nc1c2c(nc3ccccc13)-c1ccccc1C2
t
